Test system: NCI-H23 lung
Assay: NCI tumour cell line growth inhibition, 48 h

# molecule, GI50
rows = [
    ("O=C(CNc1nc(-c2ccccc2)cs1)Nc1ccc(Br)cc1", "646 nM"),
    ("COc1ccc2[nH]cc(-c3nc(N)nnc3-c3cn(C)c4ncc(Br)cc34)c2c1", "461 nM"),
    ("Clc1ccc2c(N/N=C/c3c[nH]c4ccc(Br)cc34)ccnc2c1", "1110 nM"),
    ("CC1=C(C(=O)Nc2ccccc2)C(c2ccc3ccccc3c2)n2c(nc3ccccc32)N1 (centres undefined)", "27700 nM"),
]

====

Test system: 786-0 renal
Assay: NCI tumour cell line growth inhibition, 48 h
TGI by entry:

# compound, TGI / µM
records = [
    ("Clc1ccc2c(N/N=C/c3c[nH]c4ccc(Br)cc34)ccnc2c1", 2.88),
    ("O=C(c1ccc(O)cc1)C1[C@H](c2ccc(Br)cc2)[C@@H](c2ccccc2)NC12C(=O)Nc1ccc(Br)cc12 (some centres undefined)", 9.86),
    ("COc1ccc2[nH]cc(-c3nc(N)nnc3-c3cn(C)c4ncc(Br)cc34)c2c1", 22.2),
    ("CC1=C(C(=O)Nc2ccccc2)C(c2ccc3ccccc3c2)n2c(nc3ccccc32)N1 (centres undefined)", 38.6),
]
